# System: UniProt:Q7TQM4
# Sequence (Q7TQM4 whole entry): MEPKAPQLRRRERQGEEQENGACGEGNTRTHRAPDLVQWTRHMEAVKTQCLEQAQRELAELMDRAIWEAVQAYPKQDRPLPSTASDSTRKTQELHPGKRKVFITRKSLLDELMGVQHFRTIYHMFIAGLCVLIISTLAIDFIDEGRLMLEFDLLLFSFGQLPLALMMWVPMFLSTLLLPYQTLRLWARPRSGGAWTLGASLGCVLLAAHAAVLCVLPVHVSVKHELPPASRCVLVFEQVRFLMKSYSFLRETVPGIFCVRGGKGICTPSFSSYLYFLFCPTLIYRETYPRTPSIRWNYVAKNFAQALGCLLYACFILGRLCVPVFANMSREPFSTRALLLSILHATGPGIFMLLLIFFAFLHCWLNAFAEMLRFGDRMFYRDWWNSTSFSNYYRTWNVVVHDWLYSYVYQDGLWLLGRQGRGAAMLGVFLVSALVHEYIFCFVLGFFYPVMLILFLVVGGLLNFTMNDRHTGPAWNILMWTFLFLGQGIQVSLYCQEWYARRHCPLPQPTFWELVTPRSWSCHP
Measured Property: IC50 (µM)

Previously resolved entries follow.
Compound | Unit String | Observed Measurement
CC(=O)OC[C@@]1(C)C2C[C@H](OC(C)=O)[C@@]3(C)Oc4cc(-c5cccnc5)oc(=O)c4C=C3[C@@]2(C)CC[C@@H]1OC(C)=O (stereo partly specified) | µM | 5.8
CC(=O)O[C@H]1CC[C@@]2(C)C(C[C@H](OC(C)=O)[C@@]3(C)Oc4cc(-c5cccnc5)oc(=O)c4[C@H](O)C23)C1(C)COS(=O)(=O)c1ccccc1 (single isomer, unassigned) | µM | 110
CCCCOC[C@@]1(C)C2C[C@H](OC(C)=O)[C@@]3(C)Oc4cc(-c5cccnc5)oc(=O)c4[C@H](O)C3[C@@]2(C)CC[C@@H]1OC(C)=O (stereo partly specified) | µM | 4.2

a. CCCC(N)C(=O)O[C@H]1CC2[C@](C)(CC[C@H](OC(C)=O)[C@@]2(C)COC(C)=O)C2[C@@H](O)c3c(cc(-c4cccnc4)oc3=O)O[C@@]21C (stereo partly specified)
b. CO[C@H]1c2c(cc(-c3cccnc3)oc2=O)O[C@@]2(C)C1[C@@]1(C)CC[C@H](OC(C)=O)C(C)(COC(C)=O)C1C[C@@H]2OC(C)=O (single isomer, unassigned)
c. CCCCO[C@H]1CC[C@@]2(C)C(C[C@H](OC(C)=O)[C@@]3(C)Oc4cc(-c5cccnc5)oc(=O)c4[C@H](O)C23)[C@]1(C)COC(C)=O (stereo partly specified)
Kindly order the items shown according to IC50, from the highest value down. Answer format: list of labels, ordered as asked.
b, c, a

* * *

Protein target, amino acids: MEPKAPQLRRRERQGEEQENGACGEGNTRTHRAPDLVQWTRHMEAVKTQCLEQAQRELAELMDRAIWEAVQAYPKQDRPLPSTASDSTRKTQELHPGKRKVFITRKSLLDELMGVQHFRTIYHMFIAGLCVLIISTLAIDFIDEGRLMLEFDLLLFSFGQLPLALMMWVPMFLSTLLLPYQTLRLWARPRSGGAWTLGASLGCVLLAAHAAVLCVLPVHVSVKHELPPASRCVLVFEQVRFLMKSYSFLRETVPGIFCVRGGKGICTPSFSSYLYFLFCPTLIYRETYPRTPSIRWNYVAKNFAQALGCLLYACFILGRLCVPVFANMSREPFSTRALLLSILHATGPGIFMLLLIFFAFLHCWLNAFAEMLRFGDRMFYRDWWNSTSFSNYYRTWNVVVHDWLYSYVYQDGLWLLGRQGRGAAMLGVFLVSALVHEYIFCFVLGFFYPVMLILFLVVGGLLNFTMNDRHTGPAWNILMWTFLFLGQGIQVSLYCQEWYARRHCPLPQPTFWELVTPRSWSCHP
pIC50: −log10 of the molar value.
Measured Property: pIC50

Compound | pIC50
CCCC(N)C(=O)O[C@H]1CC2[C@](C)(CC[C@@H]3OC(c4ccccc4)OC[C@@]23C)C2[C@@H](O)c3c(cc(-c4cccnc4)oc3=O)O[C@@]21C (stereo not given in full) | 8.22
CCCO[C@H]1c2c(cc(-c3cccnc3)oc2=O)O[C@@]2(C)C1[C@@]1(C)CC[C@H](OC(C)=O)[C@@](C)(COC(C)=O)C1C[C@@H]2OC(C)=O (stereo not given in full) | 4.64

I. CC(=O)OCC1(C)C2C[C@H](OS(C)(=O)=O)[C@@]3(C)Oc4cc(-c5cccnc5)oc(=O)c4[C@H](O)C3[C@@]2(C)CC[C@@H]1OC(C)=O (single isomer, unassigned)
II. CC(=O)OCC1(C)C2C[C@H](OC(C)=O)[C@@]3(C)Oc4cc(-c5cccnc5)oc(=O)c4[C@H](OC(C)=O)C3[C@@]2(C)CC[C@@H]1OC(C)=O (single isomer, unassigned)
Could you kindly indicate whether I or II has the higher pIC50 value? Give the label of your selection.
I
(I: 5.74, II: 5.29)

* * *

# System: Sterol O-acyltransferase 2 (Rattus norvegicus, UniProt Q7TQM4)
# Sequence (Q7TQM4 whole entry): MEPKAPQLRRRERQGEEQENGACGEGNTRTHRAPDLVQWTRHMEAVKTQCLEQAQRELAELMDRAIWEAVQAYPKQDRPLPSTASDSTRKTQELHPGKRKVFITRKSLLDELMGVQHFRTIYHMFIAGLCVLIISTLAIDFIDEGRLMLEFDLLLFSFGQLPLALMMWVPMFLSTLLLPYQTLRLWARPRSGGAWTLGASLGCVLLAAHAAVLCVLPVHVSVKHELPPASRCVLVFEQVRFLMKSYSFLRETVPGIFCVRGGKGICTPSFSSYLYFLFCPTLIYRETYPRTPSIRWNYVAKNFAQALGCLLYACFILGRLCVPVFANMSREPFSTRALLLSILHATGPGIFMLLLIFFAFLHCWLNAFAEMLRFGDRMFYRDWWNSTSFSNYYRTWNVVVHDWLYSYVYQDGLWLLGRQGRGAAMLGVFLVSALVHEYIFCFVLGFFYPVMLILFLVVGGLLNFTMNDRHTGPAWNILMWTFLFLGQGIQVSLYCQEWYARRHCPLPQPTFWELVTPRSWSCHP
Measured Property: IC50 (nM)

Example entries and their recorded answers appear below.
Compound | Observed Measurement
CCCCO[C@H]1c2c(cc(-c3cccnc3)oc2=O)O[C@@]2(C)C1[C@@]1(C)CC[C@H](OC(C)=O)[C@@](C)(COC(C)=O)C1C[C@@H]2OC(C)=O (some centres not stated) | 2400
CCCC(N)C(=O)O[C@H]1CC2[C@](C)(CC[C@@H]3OC(=O)OC[C@@]23C)C2[C@@H](O)c3c(cc(-c4cccnc4)oc3=O)O[C@@]21C (some centres not stated) | 2500
CCCO[C@H]1CC2[C@](C)(CC[C@H](OC(C)=O)[C@@]2(C)COC(C)=O)C2[C@@H](O)c3c(cc(-c4cccnc4)oc3=O)O[C@@]21C (some centres not stated) | 67

A. CC(=O)OCC1(C)C2C[C@H](OCc3ccccc3)[C@@]3(C)Oc4cc(-c5cccnc5)oc(=O)c4[C@H](O)C3[C@@]2(C)CC[C@@H]1OC(C)=O (single isomer, unassigned)
B. CCCC(N)C(=O)O[C@H]1CC2[C@](C)(CC[C@@H]3OC4(CCCCC4)OC[C@@]23C)C2[C@@H](O)c3c(cc(-c4cccnc4)oc3=O)O[C@@]21C (some centres not stated)
Look at A and B . Which one has the lower recorded IC50 number? Give the chosen item's label as your response.
B
(B: 39 nM, A: 7400 nM)

A. CC(=O)O[C@H]1CC2C(C)(CO)[C@@H](O)CC[C@]2(C)C2[C@@H](O)c3c(cc(-c4cccnc4)oc3=O)O[C@@]21C (single isomer, unassigned)
B. CCCOC[C@@]1(C)C2C[C@H](OC(C)=O)[C@@]3(C)Oc4cc(-c5cccnc5)oc(=O)c4[C@H](O)C3[C@@]2(C)CC[C@@H]1OC(C)=O (some centres not stated)
Please let me know which one, A or B , has a lower measured IC50 value. Could you answer with the label of the item you picked?
B

* * *

# System: Sterol O-acyltransferase 2 (Rattus norvegicus)
# Sequence (Q7TQM4 whole entry): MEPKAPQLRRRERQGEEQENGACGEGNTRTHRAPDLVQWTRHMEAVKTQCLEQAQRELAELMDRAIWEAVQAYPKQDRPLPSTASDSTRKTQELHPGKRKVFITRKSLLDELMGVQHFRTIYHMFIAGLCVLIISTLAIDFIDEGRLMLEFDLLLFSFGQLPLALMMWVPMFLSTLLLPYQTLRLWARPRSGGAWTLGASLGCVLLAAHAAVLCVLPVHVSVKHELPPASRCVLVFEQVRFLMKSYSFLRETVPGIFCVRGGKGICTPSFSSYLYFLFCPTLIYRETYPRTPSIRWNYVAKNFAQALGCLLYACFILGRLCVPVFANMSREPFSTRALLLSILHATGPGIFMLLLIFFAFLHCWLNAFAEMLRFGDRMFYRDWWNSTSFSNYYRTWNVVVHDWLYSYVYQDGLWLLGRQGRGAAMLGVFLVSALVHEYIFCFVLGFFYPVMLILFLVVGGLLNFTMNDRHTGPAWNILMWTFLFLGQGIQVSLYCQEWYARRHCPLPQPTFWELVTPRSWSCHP
Measured Property: IC50 (nM)

Molecule | IC50, nM
CC(=O)OC[C@@]1(C)C2C[C@H](OC(C)=O)[C@@]3(C)Oc4cc(-c5cccnc5)oc(=O)c4[C@H](O)C3[C@@]2(C)CC[C@@H]1OCC(C)C (stereo not given in full) | 130
CC(=O)OC[C@@]1(C)C2C[C@H](OCC(C)C)[C@@]3(C)Oc4cc(-c5cccnc5)oc(=O)c4[C@H](O)C3[C@@]2(C)CC[C@@H]1OC(C)=O (stereo not given in full) | 130

A. CCCC(N)C(=O)O[C@H]1CC2[C@](C)(CC[C@@H]3OC(C)(c4ccccc4)OC[C@@]23C)C2[C@@H](O)c3c(cc(-c4cccnc4)oc3=O)O[C@@]21C (stereo not given in full)
B. CC(=O)O[C@H]1CC[C@@]2(C)C(C[C@H](OC(C)=O)[C@@]3(C)Oc4cc(-c5cccnc5)oc(=O)c4[C@H](O)C23)[C@]1(C)COCC(C)C (stereo not given in full)
Select the item with the higher value of IC50 from the options A and B listed. Mark your selection by writing its label.
B
